Tested on: Proteus vulgaris
Experiment: Antibacterial activity against Proteus vulgaris RCMB 010085 assessed as growth inhibition after 24 hrs by twofold serial dilution method
Format: functional
Calls of active or inactive are those of the source. No cut-off for these calls is given here.

| compound | target_entity | MIC |
| --- | --- | --- |
| Cc1nc(-c2cccnc2)sc1C1=NNC(c2ccc(F)cc2F)C1 (centres undefined) | Proteus vulgaris | inactive |
| Cc1nc(-c2cccnc2)sc1C1=NNC(c2ccc(Cl)cc2)C1 (centres undefined) | Proteus vulgaris | inactive |
| CC(=O)Nc1ccc(-c2csc(-c3cccnc3)n2)cc1 | Proteus vulgaris | inactive |
| Cc1nc(-c2cccnc2)sc1C1=NNC(c2ccccc2)C1 (centres undefined) | Proteus vulgaris | inactive |

====

Test system: Aspergillus fumigatus
Test: Antifungal activity against Aspergillus fumigatus RCMB 02564 assessed as growth inhibition after 48 hrs by twofold serial dilution method
Format: functional
Settings: RCMB 02564, 48 h
measured_attribute: MIC
# output: number + unit

Q: Could you tell me which MIC is on file for Cc1nc(-c2cccnc2)sc1C1=NNC(c2ccc(Cl)cc2)C1 (centres undefined) ?
Ans: 125 µg/mL

Q: Could you tell me which MIC is on file for COc1ccc(C2CC(c3sc(-c4cccnc4)nc3C)=NN2)cc1 (centres undefined) ?
Ans: 31.2 µg/mL

Q: Could you tell me which MIC is on file for Cc1csc(-c2cccnc2)n1 ?
Ans: 7.81 µg/mL

Q: Could you tell me which MIC is on file for Cc1nc(-c2cccnc2)sc1C(=O)/C=C/c1ccccc1 ?
Ans: 125 µg/mL

Q: Could you tell me which MIC is on file for C[C@@H]1[C@H](O)[C@@H](C)/C=C/C=C/C=C/C=C/C=C/C=C/C=C/[C@H](O[C@@H]2O[C@H](C)[C@@H](O)[C@H](N)[C@@H]2O)C[C@@H]2O[C@](O)(C[C@@H](O)C[C@@H](O)[C@H](O)CC[C@@H](O)C[C@@H](O)CC(=O)O[C@H]1C)C[C@H](O)[C@H]2C(=O)O ?
Ans: 0.97 µg/mL

Q: Could you tell me which MIC is on file for O=c1oc2ccccc2cc1-c1csc(-c2cccnc2)n1 ?
Ans: 15.6 µg/mL

Q: Could you tell me which MIC is on file for Cc1nc(-c2cccnc2)sc1C1=NNC(c2ccccc2)C1 (centres undefined) ?
Ans: 125 µg/mL

Q: Could you tell me which MIC is on file for Cc1nc(-c2cccnc2)sc1C(=O)/C=C/c1ccc(F)cc1F ?
Ans: 62.5 µg/mL

Q: Could you tell me which MIC is on file for CC(=O)c1sc(-c2cccnc2)nc1C ?
Ans: 1.95 µg/mL

====

Test system: Candida albicans
Test: Antifungal activity against Candida albicans RCMB 05035 assessed as growth inhibition after 48 hrs by twofold serial dilution method
Format: functional
Conditions: RCMB 05035, 48 h
I'd be grateful if you could share measured log10 MIC for these entries.
The figures below represent log10 of MIC, where MIC is stated in µg/mL.

Q: Could you tell me which log10 MIC is on file for Cc1nc(-c2cccnc2)sc1C(=O)/C=C/c1ccccc1[N+](=O)[O-] ?
Ans: 1.49

Q: Could you tell me which log10 MIC is on file for C[C@@H]1[C@H](O)[C@@H](C)/C=C/C=C/C=C/C=C/C=C/C=C/C=C/[C@H](O[C@@H]2O[C@H](C)[C@@H](O)[C@H](N)[C@@H]2O)C[C@@H]2O[C@](O)(C[C@@H](O)C[C@@H](O)[C@H](O)CC[C@@H](O)C[C@@H](O)CC(=O)O[C@H]1C)C[C@H](O)[C@H]2C(=O)O ?
Ans: -0.62

Q: Could you tell me which log10 MIC is on file for O=c1oc2ccccc2cc1-c1csc(-c2cccnc2)n1 ?
Ans: 2.10

Q: Could you tell me which log10 MIC is on file for Cc1csc(-c2cccnc2)n1 ?
Ans: 1.49

Q: Could you tell me which log10 MIC is on file for Cc1nc(-c2cccnc2)sc1C(=O)/C=C/c1ccccc1 ?
Ans: 2.70

Q: Could you tell me which log10 MIC is on file for COc1ccc(C2CC(c3sc(-c4cccnc4)nc3C)=NN2)cc1 (stereo not given) ?
Ans: 2.40

Q: Could you tell me which log10 MIC is on file for Cc1nc(-c2cccnc2)sc1C(=O)/C=C/c1ccc(Cl)cc1 ?
Ans: 2.40

Q: Could you tell me which log10 MIC is on file for CC(=O)c1sc(-c2cccnc2)nc1C ?
Ans: 0.89

Q: Could you tell me which log10 MIC is on file for COc1ccc(/C=C/C(=O)c2sc(-c3cccnc3)nc2C)cc1 ?
Ans: 1.80

Q: Could you tell me which log10 MIC is on file for Cc1nc(-c2cccnc2)sc1C(=O)/C=C/c1ccc(F)cc1F ?
Ans: 2.70

====

Test system: Shigella flexneri
Test: Antibacterial activity against Shigella flexneri RCMB 0100542 assessed as growth inhibition after 24 hrs by twofold serial dilution method
Format: functional
Settings: RCMB 0100542, 24 h
measured_attribute: log10(MIC) (log10 of the value in µg/mL)
The figures below represent log10 of MIC, where MIC is stated in µg/mL.

Q: Could you tell me which log10(MIC) is on file for CC(=O)c1sc(-c2cccnc2)nc1C ?
Ans: 0.59

Q: Could you tell me which log10(MIC) is on file for O=c1oc2ccccc2cc1-c1csc(-c2cccnc2)n1 ?
Ans: 0.29

Q: Could you tell me which log10(MIC) is on file for Cc1csc(-c2cccnc2)n1 ?
Ans: 0.59

Q: Could you tell me which log10(MIC) is on file for Cc1nc(-c2cccnc2)sc1C(=O)/C=C/c1ccccc1 ?
Ans: 2.10

Q: Could you tell me which log10(MIC) is on file for Cc1nc(-c2cccnc2)sc1C(=O)/C=C/c1ccccc1[N+](=O)[O-] ?
Ans: 0.89

Q: Could you tell me which log10(MIC) is on file for COc1ccc(C2CC(c3sc(-c4cccnc4)nc3C)=NN2)cc1 (configuration not stated) ?
Ans: 1.80

Q: Could you tell me which log10(MIC) is on file for COc1ccc(/C=C/C(=O)c2sc(-c3cccnc3)nc2C)cc1 ?
Ans: 0.89

====

Tested on: Staphylococcus epidermidis
Test: Antibacterial activity against Staphylococcus epidermidis RCMB 010024 assessed as growth inhibition after 24 hrs by twofold serial dilution method
Type: functional
Conditions: RCMB 010024, 24 h
measured_attribute: MIC
# output: number + unit

Q: Could you share what MIC was measured for O=c1oc2ccccc2cc1-c1csc(-c2cccnc2)n1 , tested on Staphylococcus epidermidis?
Ans: 3.9 µg/mL

Q: Could you share what MIC was measured for Cc1csc(-c2cccnc2)n1 , tested on Staphylococcus epidermidis?
Ans: 0.97 µg/mL

Q: Could you share what MIC was measured for CC(=O)Nc1ccc(-c2csc(-c3cccnc3)n2)cc1 , tested on Staphylococcus epidermidis?
Ans: 1.95 µg/mL

Q: Could you share what MIC was measured for COc1ccc(/C=C/C(=O)c2sc(-c3cccnc3)nc2C)cc1 , tested on Staphylococcus epidermidis?
Ans: 3.9 µg/mL

Q: Could you share what MIC was measured for Cc1nc(-c2cccnc2)sc1C(=O)/C=C/c1ccc(Cl)cc1 , tested on Staphylococcus epidermidis?
Ans: 31.2 µg/mL

Q: Could you share what MIC was measured for Cc1nc(-c2cccnc2)sc1C1=NNC(c2ccc(Cl)cc2)C1 (centres undefined) , tested on Staphylococcus epidermidis?
Ans: 62.5 µg/mL

Q: Could you share what MIC was measured for Cc1nc(-c2cccnc2)sc1C1=NNC(c2ccc(F)cc2F)C1 (centres undefined) , tested on Staphylococcus epidermidis?
Ans: 125 µg/mL

Q: Could you share what MIC was measured for COc1ccc(C2CC(c3sc(-c4cccnc4)nc3C)=NN2)cc1 (centres undefined) , tested on Staphylococcus epidermidis?
Ans: 15.6 µg/mL

Q: Could you share what MIC was measured for Cc1nc(-c2cccnc2)sc1C(=O)/C=C/c1ccc(F)cc1F , tested on Staphylococcus epidermidis?
Ans: 31.2 µg/mL

====

System: Aspergillus fumigatus
Assay: Antifungal activity against Aspergillus fumigatus RCMB 02564 assessed as growth inhibition after 48 hrs by twofold serial dilution method
Type: functional
Conditions: RCMB 02564, 48 h
measured_attribute: MIC (µg/mL)
Numeric answer only, unit µg/mL assumed.

Q: Could you tell me which MIC is on file for Cc1nc(-c2cccnc2)sc1C(=O)/C=C/c1ccccc1[N+](=O)[O-] ?
Ans: 7.81

Q: Could you tell me which MIC is on file for COc1ccc(/C=C/C(=O)c2sc(-c3cccnc3)nc2C)cc1 ?
Ans: 15.6

Q: Could you tell me which MIC is on file for CC(=O)Nc1ccc(-c2csc(-c3cccnc3)n2)cc1 ?
Ans: 7.81

Q: Could you tell me which MIC is on file for Cc1nc(-c2cccnc2)sc1C1=NNC(c2ccc(F)cc2F)C1 (stereo not given) ?
Ans: 125

Q: Could you tell me which MIC is on file for Cc1nc(-c2cccnc2)sc1C(=O)/C=C/c1ccc(Cl)cc1 ?
Ans: 62.5

// data source = ChEMBL document CHEMBL2331482
